system: AGE-BSA-collagen cross-links; assay: Elisa screening experiment on the breaking of AGE-BSA collagen cross-links; format: biochemical, rat; conditions: test compound 0.1 mmol/L, 37° C., 16 hours, OD 450 nm, averages of more than three screening results
Breaking rate (decrease % in OD) vs 10%: at or above is true, below is false.

>  <compound>
Cc1csc[n+]1CC(=O)OCc1ccccc1.[Br-]

>  <group>
true

$$$$
>  <compound>
Cc1sc[n+](CC(=O)OCc2ccccc2)c1C.[Br-]

>  <group>
false

$$$$
>  <compound>
Cc1sc[n+](CC(=O)c2ccccc2)c1C.[Cl-] [ALT-711, reference compound]

>  <group>
true

$$$$
>  <compound>
O=C(C[n+]1csc2c1CCCC2)OCc1ccccc1.[Br-]

>  <group>
false

$$$$
>  <compound>
Cc1c(CCO)sc[n+]1CC(=O)OCc1ccccc1.[Br-]

>  <group>
true

$$$$
